experimentalTarget: Interleukin-23 receptor (Homo sapiens, UniProt Q5VWK5)
Sequence (Q5VWK5 whole entry): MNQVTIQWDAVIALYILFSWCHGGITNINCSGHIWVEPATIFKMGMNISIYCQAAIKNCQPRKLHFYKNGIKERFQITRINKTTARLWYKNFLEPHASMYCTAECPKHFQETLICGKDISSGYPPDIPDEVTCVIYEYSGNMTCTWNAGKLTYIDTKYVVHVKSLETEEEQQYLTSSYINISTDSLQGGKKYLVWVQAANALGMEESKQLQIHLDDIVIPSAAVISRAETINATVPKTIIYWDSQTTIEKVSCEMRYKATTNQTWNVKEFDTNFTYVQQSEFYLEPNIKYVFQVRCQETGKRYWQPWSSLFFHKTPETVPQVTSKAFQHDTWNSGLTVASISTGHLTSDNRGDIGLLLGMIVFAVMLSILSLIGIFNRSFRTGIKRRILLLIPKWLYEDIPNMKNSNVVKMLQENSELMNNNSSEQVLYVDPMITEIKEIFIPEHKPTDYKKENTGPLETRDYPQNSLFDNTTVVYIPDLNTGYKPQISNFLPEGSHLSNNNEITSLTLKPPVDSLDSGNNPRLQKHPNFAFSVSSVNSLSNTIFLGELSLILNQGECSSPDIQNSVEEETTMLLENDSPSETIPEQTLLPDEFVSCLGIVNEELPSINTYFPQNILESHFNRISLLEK
assayMethodText: Inhibition of interleukin-23 binding to human interleukin-23 receptor incubated for 2 hrs by competitive binding ELISA
pIC50: −log10 of the molar value. Where a SMILES comes first, the peptide text is derived from it. [ ]: non-standard residue; d: D form. hLeu = CC(C)CC[C@H](N)C(=O)O
endpointName: pIC50

As a guide, the following entries are already answered.
- compound: "CC(=O)N[C@@H](CS)C(=O)N[C@@H](CCC(N)=O)C(=O)N[C@H](C(=O)N[C@@H](Cc1c[nH]c2ccccc12)C(=O)N[C@@H](CCC(N)=O)C(=O)N[C@@H](CS)C(=O)N[C@@H](Cc1ccc(O)cc1)C(=O)N[C@@H](Cc1c[nH]c2ccccc12)C(=O)N[C@@H](CCONC(=N)N)C(=O)N[C@@H](CCC(=O)O)C(=O)N[C@@H](CC(N)=O)C(=O)NCC(=O)NCCOCC(=O)N[C@H](CCCCN)C(N)=O)[C@@H](C)O"
  experimentalTarget: "Interleukin-23 receptor (Homo sapiens, UniProt Q5VWK5)"
  pIC50: "> 6.30"
- compound: "C[C@H](N)C(=O)N[C@@H](C)C(=O)N[C@@H](CC(=O)O)C(=O)N[C@@H](Cc1c[nH]c2ccccc12)C(=O)N[C@@H](CS)C(=O)N[C@@H](C)C(=O)N[C@@H](Cc1ccc(O)cc1)C(=O)N[C@@H](Cc1c[nH]c2ccccc12)C(=O)N[C@@H](CS)C(=O)N[C@H](C(=O)N[C@@H](Cc1ccccc1)C(=O)NCC(N)=O)[C@@H](C)O (H-AADWCAYWCTFG-NH2)"
  experimentalTarget: "Interleukin-23 receptor (Homo sapiens, UniProt Q5VWK5)"
  pIC50: "< 6.00"
- compound: "CCCCCCCC(=O)N[C@H](C(=O)N[C@@H](CCC(N)=O)C(=O)N[C@H](C(=O)N[C@@H](Cc1c[nH]c2ccccc12)C(=O)N[C@@H](CCC(N)=O)C(=O)N[C@H](C(=O)N[C@@H](Cc1ccc(OC)cc1)C(=O)N[C@@H](Cc1ccc2ccccc2c1)C(=O)N[C@@](C)(CCCCN)C(=O)N[C@@H](CCCCNC(C)=O)C(=O)N[C@@H](CC(N)=O)C(=O)NCC(N)=O)C(C)(C)S)[C@@H](C)O)C(C)(C)S"
  experimentalTarget: "Interleukin-23 receptor (Homo sapiens, UniProt Q5VWK5)"
  pIC50: "6.00 to 7.00"
- compound: "CC(=O)N[C@@H](CS)C(=O)N[C@@H](CCC(N)=O)C(=O)N[C@H](C(=O)N[C@H](C(=O)N[C@@H](CCC(N)=O)C(=O)N[C@@H](CS)C(=O)N[C@@H](Cc1ccc(O)cc1)C(=O)N[C@@H](Cc1c[nH]c2ccccc12)C(=O)N[C@@H](CCC(C)C)C(=O)N[C@@H](CCC(=O)O)C(=O)N[C@@H](CC(N)=O)C(=O)NCC(N)=O)[C@@H](C)O)[C@@H](C)O (Ac-CQTTQCYW[hLeu]ENG-NH2)"
  experimentalTarget: "Interleukin-23 receptor (Homo sapiens, UniProt Q5VWK5)"
  pIC50: "< 5.00"
- compound: "COc1ccc(C[C@H](NC(=O)[C@@H]2CSCC[C@H](NC(C)=O)C(=O)N[C@@H](CCC(N)=O)C(=O)N[C@@H]([C@@H](C)O)C(=O)N[C@@H](Cc3c[nH]c4ccccc34)C(=O)N[C@@H](CCC(N)=O)C(=O)N2)C(=O)N[C@@H](Cc2cccc3ccccc23)C(=O)N[C@@](C)(CCCCN)C(=O)N[C@@H](CCCCNC(C)=O)C(=O)N[C@@H](CC(N)=O)C(=O)NCC(N)=O)cc1"
  experimentalTarget: "Interleukin-23 receptor (Homo sapiens, UniProt Q5VWK5)"
  pIC50: "7.00 to 7.60"
- compound: "CC(=O)NCCCC[C@H](NC(=O)C(C)(C)NC(=O)[C@H](Cc1ccc2ccccc2c1)NC(=O)[C@H](Cc1ccc(OCCN)cc1)NC(=O)[C@@H](NC(=O)[C@H](CCC(N)=O)NC(=O)[C@H](Cc1c[nH]c2ccccc12)NC(=O)[C@@H](NC(=O)[C@H](CC(N)=O)NC(=O)[C@@H](NC(C)=O)C(C)(C)S)[C@@H](C)O)C(C)(C)S)C(=O)N[C@@H](CC(N)=O)C(=O)N[C@@H](CC(N)=O)C(N)=O"
  experimentalTarget: "Interleukin-23 receptor (Homo sapiens, UniProt Q5VWK5)"
  pIC50: "> 8.00"
- compound: "CC(=O)NCCCC[C@H](NC(=O)[C@](C)(CCCCNC(C)=O)NC(=O)[C@H](Cc1ccc2ccccc2c1)NC(=O)[C@H](Cc1ccc(OCCNC(C)=O)cc1)NC(=O)[C@@H]1CSCC[C@H](NC(C)=O)C(=O)N[C@@H](CCC(N)=O)C(=O)N[C@@H]([C@@H](C)O)C(=O)N[C@@H](Cc2c[nH]c3ccccc23)C(=O)N[C@@H](CCC(N)=O)C(=O)N1)C(=O)N[C@@H](CC(N)=O)C(=O)NCC(N)=O"
  experimentalTarget: "Interleukin-23 receptor (Homo sapiens, UniProt Q5VWK5)"
  pIC50: "> 8.00"
- compound: "CC(=O)N[C@@H](CS)C(=O)N[C@@H](C)C(=O)N[C@@H](CC(=O)O)C(=O)N[C@@H](Cc1c[nH]c2ccccc12)C(=O)N[C@H](C(=O)N[C@@H](CS)C(=O)N[C@@H](Cc1ccc(O)cc1)C(=O)N[C@@H](Cc1cccc2ccccc12)C(=O)N[C@@H](Cc1cnc[nH]1)C(=O)N[C@H](C)C(=O)N[C@@H](Cc1ccccc1)C(=O)NCC(N)=O)C(C)C"
  experimentalTarget: "Interleukin-23 receptor (Homo sapiens, UniProt Q5VWK5)"
  pIC50: "< 6.00"
- compound: "CC(=O)NCCCC[C@H](NC(=O)[C@](C)(CCCCN)NC(=O)[C@H](Cc1c[nH]c2ccccc12)NC(=O)[C@H](Cc1ccc(O)cc1)NC(=O)[C@@H](NC(=O)[C@H](CCC(N)=O)NC(=O)[C@H](Cc1c[nH]c2ccccc12)NC(=O)[C@@H](NC(=O)[C@H](CCC(N)=O)NC(=O)[C@@H](NC(C)=O)C(C)(C)S)[C@@H](C)O)C(C)(C)S)C(=O)N[C@@H](CC(N)=O)C(=O)NCC(N)=O"
  experimentalTarget: "Interleukin-23 receptor (Homo sapiens, UniProt Q5VWK5)"
  pIC50: "6.00 to 7.00"
- compound: "COc1ccc(C[C@H](NC(=O)[C@@H](NC(=O)[C@H](CCC(N)=O)NC(=O)[C@H](Cc2c[nH]c3ccccc23)NC(=O)[C@@H](NC(=O)[C@H](CCC(N)=O)NC(=O)[C@@H](NC(=O)c2cc(O)c(O)c(O)c2)C(C)(C)S)[C@@H](C)O)C(C)(C)S)C(=O)N[C@@H](Cc2ccc3ccccc3c2)C(=O)N[C@@](C)(CCCCN)C(=O)N[C@@H](CCCCNC(C)=O)C(=O)N[C@@H](CC(N)=O)C(=O)NCC(N)=O)cc1"
  experimentalTarget: "Interleukin-23 receptor (Homo sapiens, UniProt Q5VWK5)"
  pIC50: "5.00 to 6.00"

Now examine the next entry.
INPUT: Which pIC50 is reported for this compound? CC(=O)N[C@@H](CS)C(=O)N[C@@H](C)C(=O)N[C@@H](CC(=O)O)C(=O)N[C@@H](Cc1c[nH]c2ccccc12)C(=O)N[C@H](C(=O)N[C@@H](CS)C(=O)N[C@@H](Cc1ccc(O)cc1)C(=O)N[C@H](C(=O)N[C@@H](CCCN)C(=O)N[C@@H](CN)C(=O)N[C@@H](Cc1ccccc1)C(=O)NCC(=O)NCCOCC(=O)N[C@H](CCCCN)C(N)=O)C1CCC(c2ccccc2)CC1)C(C)C (stereo partly specified)
OUTPUT: < 5.52
